Molecular target: T1, human TIGIT on CHOK1-huTIGIT-2A3 cells (human, UniProt Q495A1 22-244)
T1 construct: whole, on cells; also called cells expressing the human TIGIT
T1 sequence (looked up): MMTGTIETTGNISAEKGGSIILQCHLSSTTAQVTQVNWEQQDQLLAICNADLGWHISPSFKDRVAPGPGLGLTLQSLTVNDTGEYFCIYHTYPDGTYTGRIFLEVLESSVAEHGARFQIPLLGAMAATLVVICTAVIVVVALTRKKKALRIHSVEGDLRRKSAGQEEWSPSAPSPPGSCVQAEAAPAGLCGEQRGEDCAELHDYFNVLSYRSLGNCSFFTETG
Experiment: flow cytometry competition with huCD155-moFc on CHOK1-huTIGIT-2A3 cells
TEST READOUT: IC50 (µg/mL)

BINDER: 900424 (antibody, human IgG1, kappa, L234A L235A, V domains shown, Chimeric form of B3/29F6; also called ADCC KO type human-mouse chimeric antibody (number 900424)) VH: DVQLQESGPGLVKPSQSLSLTCTVTGYSITSDYAWIWIRQFPGNKVEWMGYITSSGSTSYNPSLKSRISFTRDTSKNQFFLQLTSVTTEDTATYYCARLDFGNYGGAMDYWGQGTSVTVSS VL: DIVMTQSHKFMSTSIGDRVSITCKASQHVSTAVAWYQQKPGQSPKLLIYSASYRYTGVPDRFTGSRSGTDFTFTISSVQAEDLAVYYCQQHYITPYTFGGGTKLEIKR
VALUE MEASURED: 0.062

BINDER: 900428 (antibody, human IgG1, kappa, L234A L235A, V domains shown, also called anti-TIGIT chimeric antibody 900428) VH: DVQLQESGPGLVKPSQSLSLTCTVTGYSITSDYAWNWIRQFPGNRLEWMGYISYSGAPRYNPSLKSRISITRDTSKNQFFLQLSFVTTEDTATYYCASLGTDYYAMDYWGQGTSVIVSS VL: DIVMTQSHKFMFTSVGDRVSITCKASQHVSNAVAWYQQKPGQSPKLLIHSASYRYTGVPDRFTGRGSGTDFTFTINSVQAEDLAVYYCQQYYSLPWTFGGGTKLEIKR
VALUE MEASURED: 0.069
